Biological target: T1, IL10Rα/IL2Rγ receptor (human, UniProt Q13651 22-578; P31785 23-369)
T1 sequence (looked up) 1: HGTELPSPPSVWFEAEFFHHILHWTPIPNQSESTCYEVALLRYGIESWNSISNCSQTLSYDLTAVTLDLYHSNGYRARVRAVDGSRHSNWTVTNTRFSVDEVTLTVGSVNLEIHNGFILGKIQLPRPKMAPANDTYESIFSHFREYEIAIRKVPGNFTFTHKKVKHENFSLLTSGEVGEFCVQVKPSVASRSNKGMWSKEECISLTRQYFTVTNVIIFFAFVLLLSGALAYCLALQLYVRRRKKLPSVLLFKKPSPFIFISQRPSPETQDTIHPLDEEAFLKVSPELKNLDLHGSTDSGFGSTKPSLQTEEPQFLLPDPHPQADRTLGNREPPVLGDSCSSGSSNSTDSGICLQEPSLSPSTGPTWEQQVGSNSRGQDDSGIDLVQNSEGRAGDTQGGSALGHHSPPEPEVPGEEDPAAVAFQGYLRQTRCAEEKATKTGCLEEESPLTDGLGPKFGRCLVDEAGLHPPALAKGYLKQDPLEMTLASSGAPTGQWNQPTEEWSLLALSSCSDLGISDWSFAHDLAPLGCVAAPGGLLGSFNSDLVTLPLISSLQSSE
T1 sequence (looked up) 2: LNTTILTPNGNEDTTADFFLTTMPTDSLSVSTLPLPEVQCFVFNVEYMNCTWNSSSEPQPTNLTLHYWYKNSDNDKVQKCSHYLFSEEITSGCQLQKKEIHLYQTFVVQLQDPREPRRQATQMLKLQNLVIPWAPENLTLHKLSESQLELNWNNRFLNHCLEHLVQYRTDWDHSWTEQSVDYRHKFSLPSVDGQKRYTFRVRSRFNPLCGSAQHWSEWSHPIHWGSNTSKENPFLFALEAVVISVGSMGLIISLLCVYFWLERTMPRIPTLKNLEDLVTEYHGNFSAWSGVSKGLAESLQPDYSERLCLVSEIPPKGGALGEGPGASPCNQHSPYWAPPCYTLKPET
Assay: cell-based or functional assay
observation_type: pSTAT3 MFI, CD4 T cells, 1 nM (unstimulated 1887) (MFI)

{"columns": ["binder", "meas_value"],
 "data": [
  ["DR471(DR241-DR231) (bispecific antibody) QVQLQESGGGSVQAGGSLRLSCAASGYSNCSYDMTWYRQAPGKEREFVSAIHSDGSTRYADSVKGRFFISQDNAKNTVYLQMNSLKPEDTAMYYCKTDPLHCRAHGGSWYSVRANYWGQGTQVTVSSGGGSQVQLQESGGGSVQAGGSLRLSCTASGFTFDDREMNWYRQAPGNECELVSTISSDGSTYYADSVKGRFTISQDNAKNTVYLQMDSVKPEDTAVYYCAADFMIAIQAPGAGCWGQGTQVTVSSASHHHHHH", 4600]
]}
